Recorded measurements of inhibition, one per entry
# system.tested: Bifunctional protein GlmU (Mycobacterium tuberculosis (strain ATCC 25618 / H37Rv)) (UniProt P9WMN3)
# Sequence (P9WMN3 whole entry, looked up): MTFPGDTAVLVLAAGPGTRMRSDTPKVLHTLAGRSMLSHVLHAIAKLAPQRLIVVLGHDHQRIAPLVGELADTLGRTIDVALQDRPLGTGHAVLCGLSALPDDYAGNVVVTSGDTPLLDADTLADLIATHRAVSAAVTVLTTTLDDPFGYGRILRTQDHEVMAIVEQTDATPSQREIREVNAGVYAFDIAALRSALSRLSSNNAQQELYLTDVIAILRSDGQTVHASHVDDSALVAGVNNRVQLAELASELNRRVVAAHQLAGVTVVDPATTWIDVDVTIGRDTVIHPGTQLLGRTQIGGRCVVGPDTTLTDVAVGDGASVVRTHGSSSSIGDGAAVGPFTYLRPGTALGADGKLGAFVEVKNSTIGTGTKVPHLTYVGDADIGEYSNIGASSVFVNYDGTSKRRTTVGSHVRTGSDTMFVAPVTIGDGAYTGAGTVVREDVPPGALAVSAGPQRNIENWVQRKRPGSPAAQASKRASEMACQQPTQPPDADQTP
# assay.comment: inhibition of mycobacterial GlmU enzyme – biochemical, glucosamine-1-phosphate acetyltransferase (AID 1376);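 note: 0% = complete reaction with vehicle and 100% = reaction without substrate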
# conditions: M. tuberculosis GlmU acetyltransferase enzyme assay; stronger effect = higher value;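 tested at 30 µM in the primary screen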
Out of some 220,000 compounds screened, about 530 (0.24%) were called active. The sample holds actives, similar compounds and a random draw of the others, so the mix is not that of the screen. Entries with a potency or affinity are not part of this list.
Number only, in %; omit the unit.

// worked examples, inhibition included
• CCc1ccc(NS(=O)(=O)c2ccc3[nH]cc(C(=O)N(C)Cc4ccco4)c(=O)c3c2)cc1 = 1.75
• O=C(O)C1CCCCC1C(=O)Nc1ccccc1Cl (stereo not given) = -0.88
• Cc1cc(C(=O)O)c(CSCc2cc(C(=O)O)oc2C)o1 = 2.24
• COc1cc(/C=N/NC(=O)CCn2c3ccccc3c3ccccc32)cc(OC)c1OC = 1.58
• CCC(=O)OCCNc1cc(Sc2nc3ccccc3[nH]2)c2nonc2c1[N+](=O)[O-] = 10.6

State, in one line, measured inhibition of CCCC(=O)OCCNc1cc(Sc2nc3ccccc3[nH]2)c2nonc2c1[N+](=O)[O-]
9.67

State, in one line, measured inhibition of CCC(=O)OCCNc1cc(Sc2nccn2C)c2nonc2c1[N+](=O)[O-]
12.7

State, in one line, measured inhibition of COc1ccccc1OCCCCN1CCN(C(c2ccccc2)c2ccccc2)CC1
-0.89

State, in one line, measured inhibition of Cc1nnc(Sc2cc(NCCO)c([N+](=O)[O-])c3nonc23)s1
1.7

State, in one line, measured inhibition of Cc1ccc(Sc2cc(NCCCO)c([N+](=O)[O-])c3nonc23)cc1
-0.69
